TARGET DESC: Estrogen receptor beta (Homo sapiens)
MEASUREMENT PROTOCOL: ERbeta binders displacing fluorescent estradiol, dose response, cell-based, Cos7 ERbeta-GFP, E2-Alexa633, flow cytometry (AID 1221)
STUDY CONDITIONS: inactive by the depositor's call
OBSERVED PROPERTY: EC50 (nM)

[A] COc1ccc(CNC(=O)c2cc(-c3cccs3)on2)cc1 [MLS000087249]
[B] O=C(OCC(=O)N1CCN(C(=O)c2ccco2)CC1)c1cc(-c2ccco2)nc2ccccc12
Input line: Between these two entries, A and B , state which has the higher EC50. Provide the label of your selected option as the answer.
Output line: A

[P] CCCCOC(=O)c1c(C)oc2ccc(NS(=O)(=O)c3ccc4c5c(cccc35)C(=O)N4)cc12
[Q] Cc1cc(C)c2c(c1)[C@@H]1C=CC[C@@H]1[C@H](c1ccc(S(=O)(=O)N3CCOCC3)cc1)N2
Input line: In the pair P and Q , the larger recorded EC50 belongs to which? Please identify the chosen entry by its label.
Output line: Q

[I] Cc1ccc(C(=O)N/N=C/c2ccc([N+](=O)[O-])s2)cc1
[II] O=C(O)c1cc(Cl)c2c(c1)[C@@H]1C=CC[C@@H]1[C@H](c1ccc(S(=O)(=O)N3CCOCC3)cc1)N2
Input line: Larger number for EC50: I , or II ? Lab log: write the label of the selected item as the result.
Output line: II
(II: 729 nM, I: 70.7 nM)

* * *

TARGET DESC: Estrogen receptor beta (Homo sapiens, UniProt Q92731)
Sequence (Q92731 whole entry): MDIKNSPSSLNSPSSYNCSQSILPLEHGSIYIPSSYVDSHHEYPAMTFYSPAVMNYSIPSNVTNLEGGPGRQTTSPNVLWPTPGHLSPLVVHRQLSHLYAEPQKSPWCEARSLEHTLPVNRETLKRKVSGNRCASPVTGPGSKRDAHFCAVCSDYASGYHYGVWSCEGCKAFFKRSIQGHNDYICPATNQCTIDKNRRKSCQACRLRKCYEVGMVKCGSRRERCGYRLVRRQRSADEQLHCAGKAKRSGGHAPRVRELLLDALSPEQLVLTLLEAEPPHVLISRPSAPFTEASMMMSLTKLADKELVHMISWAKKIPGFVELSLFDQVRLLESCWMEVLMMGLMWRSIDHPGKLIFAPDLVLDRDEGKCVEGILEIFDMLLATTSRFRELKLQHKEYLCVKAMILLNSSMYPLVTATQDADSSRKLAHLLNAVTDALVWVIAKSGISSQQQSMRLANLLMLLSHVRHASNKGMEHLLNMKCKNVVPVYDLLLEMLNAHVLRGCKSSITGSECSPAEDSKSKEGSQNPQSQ
MEASUREMENT PROTOCOL: ERbeta binders displacing fluorescent estradiol, dose response, cell-based, Cos7 ERbeta-GFP, E2-Alexa633, flow cytometry (AID 1221)
OBSERVED PROPERTY: EC50 (nM)

[a] CCC(=O)Oc1ccc(C(CC)C(CC)c2ccc(OC(=O)CC)cc2)cc1 (configuration not stated) [HEXESTROL DIPROPIONATE]
[b] O=C(c1cc2ncc(Br)cn2n1)N1CCN(C(=O)c2ccco2)CC1
Input line: Two entries are listed, a and b . Which one carries the higher EC50? Reply briefly: the label of your chosen item.
Output line: a

* * *

TARGET DESC: Estrogen receptor beta (Homo sapiens)
MEASUREMENT PROTOCOL: ERbeta binders displacing fluorescent estradiol, dose response, cell-based, Cos7 ERbeta-GFP, E2-Alexa633, flow cytometry (AID 1221)
OBSERVED PROPERTY: EC50 (µM)

Nc1ncnc2c1ncn2C1CCC(CO)C(O)C1 (stereo unspecified) ... 0.00214
CC(=O)c1ccc2c(c1)[C@@H]1C=CC[C@@H]1[C@H](c1cc3c(cc1Br)OCO3)N2 ... 0.184

[A] O=C(Nc1cc(C(F)(F)F)ccc1N1CCOCC1)C1Cc2ccccc2CN1C(=O)c1ccco1 (stereo unspecified)
[B] CCc1ccc(-c2nn(-c3ccccc3)cc2CSC(=N)N)cc1
Input line: Sort A and B by EC50 descending and give the first. Reply briefly: the label of your chosen item.
Output line: A
(A: 1.26 µM, B: 0.0399 µM)

* * *

TARGET DESC: Estrogen receptor beta (Homo sapiens)
MEASUREMENT PROTOCOL: ERbeta binders displacing fluorescent estradiol, dose response, cell-based, Cos7 ERbeta-GFP, E2-Alexa633, flow cytometry (AID 1221)
STUDY CONDITIONS: inactive by the depositor's call
pEC50: −log10 of the molar value.
OBSERVED PROPERTY: pEC50

Consider the following illustrative entries.
Cc1cc(-c2nn3c(-c4ccccc4)nnc3s2)c2ccccc2n1 ... 5.38
COc1ccc(NS(=O)(=O)c2ccc3c(c2)[C@H]2C=CC[C@H]2[C@@H](c2ccc(C(=O)O)cc2)N3)cc1 ... 5.64
C[C@]12CC[C@@H]3c4ccc(O)cc4C(=O)C[C@H]3[C@@H]1CC[C@@H]2O ... 7.42

[A] Cc1oc2cc(O)ccc2c(=O)c1Oc1ccccc1
[B] Nc1ccc(-c2nc3cc([N+](=O)[O-])ccc3[nH]2)cc1
Input line: Select the item whose pEC50 value is smaller, choosing between A and B . Response format: the label of the selected entry.
Output line: B

* * *

TARGET DESC: Estrogen receptor beta (Homo sapiens)
MEASUREMENT PROTOCOL: ERbeta binders displacing fluorescent estradiol, dose response, cell-based, Cos7 ERbeta-GFP, E2-Alexa633, flow cytometry (AID 1221)
pEC50: −log10 of the molar value.
OBSERVED PROPERTY: pEC50

COc1ccccc1N1CCN(C(=O)c2ccc3nc(-c4ccco4)c(-c4ccco4)nc3c2)CC1 ... 9.06

[A] O=C(O)c1ccc([N+](=O)[O-])c2c1NC(c1ccccc1)C1CC=CC21 (stereo not given)
[B] O=C(COC(=O)CCC(=O)c1cccs1)NCc1ccco1
Input line: Problem: Given the entries A and B , determine which has the lower reported pEC50. Please indicate the selected item by its label.
Output line: B
